test system: CP201; test: qHTS profiling for inhibitors of Plasmodium falciparum proliferation (AID 504749); also: nearly all actives have a fitted effect of over 60% in size; details: P. falciparum in erythrocytes, SYBR Green DNA, 72 h; series mostly up to 28.7 µM
Inconclusive results are not listed. Active and inactive are the calls of the source. Calls follow the shape of the dose curve; as a rule, active = well fitted inhibition curve with a large enough effect; inconclusive = small, poorly fitted or top-dose-only effect; inactive = flat fitted curve, though single readings scatter.
Possible outcomes: active, inactive

>  <Compound>
OCC(O)[C@H]1O[C@@H]2O[C@H](C(Cl)(Cl)Cl)O[C@@H]2[C@H]1O (stereo partly specified)

>  <Assayed system>
CP201

>  <Class name>
inactive

$$$$
>  <Compound>
C=C1Nc2ccccc2C(=O)N1c1ccccc1C

>  <Assayed system>
CP201

>  <Class name>
inactive

$$$$
>  <Compound>
C[C@@H]1CC[C@H]2[C@@H](C)C(=O)O[C@@H]3OC4(C)CC[C@@H]1C32OO4 (stereo partly specified)

>  <Assayed system>
CP201

>  <Class name>
active

$$$$
>  <Compound>
CC(C)=CC1C(C(=O)OCc2coc(Cc3ccccc3)c2)C1(C)C (stereo unspecified)

>  <Assayed system>
CP201

>  <Class name>
inactive

$$$$
>  <Compound>
C[C@H](N)Cc1ccccc1

>  <Assayed system>
CP201

>  <Class name>
inactive

$$$$
>  <Compound>
CN1C2CCC1C(C(=O)O)C(OC(=O)c1ccccc1)C2 (stereo unspecified)

>  <Assayed system>
CP201

>  <Class name>
inactive

$$$$
>  <Compound>
CCOC(=O)/C=C(C)/C=C/CC(C)CCCC(C)C (stereo unspecified)

>  <Assayed system>
CP201

>  <Class name>
inactive

$$$$
>  <Compound>
C[C@]12CCC3C(CCC4=C(Cl)C(=O)CC[C@@]43C)C1CCC2O (stereo partly specified)

>  <Assayed system>
CP201

>  <Class name>
inactive

$$$$
>  <Compound>
C=CC[C@]1(O)CCC2C3CCC4=CCCCC4C3CCC21C (stereo partly specified)

>  <Assayed system>
CP201

>  <Class name>
inactive

$$$$
>  <Compound>
C[C@@H](N)[C@@H](O)c1ccc(O)c(O)c1

>  <Assayed system>
CP201

>  <Class name>
inactive

$$$$
>  <Compound>
COc1ccc2c3c1O[C@H]1[C@@H](O)C=C[C@H]4C(C2)NCCC341 (stereo partly specified)

>  <Assayed system>
CP201

>  <Class name>
inactive

$$$$
